Attribution: paper PMC9208756

# study target: AtDHDPR2 (Arabidopsis thaliana, UniProt Q8LB01)
# Construct: made in house
# Sequence (Q8LB01 54-349): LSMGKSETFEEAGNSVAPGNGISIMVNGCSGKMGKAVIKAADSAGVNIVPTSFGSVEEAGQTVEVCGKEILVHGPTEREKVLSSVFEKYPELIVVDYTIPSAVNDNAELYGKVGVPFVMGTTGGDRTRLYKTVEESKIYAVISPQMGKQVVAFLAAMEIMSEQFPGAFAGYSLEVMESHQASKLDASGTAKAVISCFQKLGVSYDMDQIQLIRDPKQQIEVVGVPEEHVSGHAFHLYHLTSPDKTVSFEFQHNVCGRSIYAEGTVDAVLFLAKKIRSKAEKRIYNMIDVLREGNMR
# assay protocol: DHDPR enzyme inhibition assay, recombinant AtDHDPR2
# Format: biochemical
# recorded conditions: IC50 against AtDHDPR2, excess substrate and nucleotide cofactor, 10-fold above KM

- smiles entry: "COc1ccc(/C=C2\\SC(=O)N(CC(=O)O)C2=O)cc1"
  IC50 [µM]: 69.5

---

# study target: AtDHDPR1 (Arabidopsis thaliana)
# Construct: made in house
# assay protocol: DHDPR enzyme inhibition assay, recombinant AtDHDPR1
# Assay type: biochemical
# recorded conditions: substrate and cofactor at limiting concentrations; read-out: IC50 against AtDHDPR1

- smiles entry: "O=C(O)CN1C(=O)S/C(=C\\c2ccc(O)cc2)C1=O"
  IC50, µM: 169

---

# study target: AtDHDPR1 (Arabidopsis thaliana, UniProt O80574)
# Construct: made in house
# Sequence (O80574 52-347): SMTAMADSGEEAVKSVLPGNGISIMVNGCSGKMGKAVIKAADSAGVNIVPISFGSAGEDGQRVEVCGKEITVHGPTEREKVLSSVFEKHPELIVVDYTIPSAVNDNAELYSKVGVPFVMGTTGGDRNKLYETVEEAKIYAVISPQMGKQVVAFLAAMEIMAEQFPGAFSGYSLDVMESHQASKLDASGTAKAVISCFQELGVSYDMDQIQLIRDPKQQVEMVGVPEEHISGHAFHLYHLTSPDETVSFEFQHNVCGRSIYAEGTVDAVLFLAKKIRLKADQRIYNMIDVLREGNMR
# assay protocol: DHDPR enzyme inhibition assay, recombinant AtDHDPR1
# Format: biochemical
# recorded conditions: IC50 against AtDHDPR1, excess substrate and nucleotide cofactor, 10-fold above KM
# Description: Briefly, reaction mixtures were incubated at 30℃ for 12 min before a second 60-s incubation following the addition of excess E. coli DHDPS (51 µg ml^−1) for generation of the DHDP substrate. The relevant DHDPR isoform (2.6 µg ml^−1) was added to initiate the reaction, and substrate turnover measured spectrophotometrically at 340 nm via the associated oxidation of the cofactor NADPH. Experiments were performed in technical triplicates.
pIC50: −log10 of the molar value.

- smiles entry: "COc1ccc(/C=C2\\SC(=O)N(CC(=O)O)C2=O)cc1"
  study target: "AtDHDPR1 (Arabidopsis thaliana, UniProt O80574)"
  pIC50: 4.14

---

# study target: AtDHDPR2 (Arabidopsis thaliana, UniProt Q8LB01)
# Construct: made in house
# assay protocol: DHDPR enzyme inhibition assay, recombinant AtDHDPR2
# Assay type: biochemical
# recorded conditions: substrate and cofactor at limiting concentrations; read-out: IC50 against AtDHDPR2
pIC50: −log10 of the molar value.
observed property: pIC50

- smiles entry: "O=C(O)CN1C(=O)S/C(=C\\c2ccc(O)cc2)C1=O"
  recorded number: 3.81

---

# study target: AtDHDPR1 (Arabidopsis thaliana)
# Construct: made in house
# assay protocol: DHDPR enzyme inhibition assay, recombinant AtDHDPR1
# Assay type: biochemical
# recorded conditions: IC50 against AtDHDPR1, substrate and cofactor at limiting concentrations
observed property: IC50 (µM)

- smiles entry: "COc1ccc(/C=C2\\SC(=O)N(CC(=O)O)C2=O)cc1"
  recorded number: 6.92

---

# study target: AtDHDPR2 (Arabidopsis thaliana)
# Construct: made in house
# Sequence (Q8LB01 54-349): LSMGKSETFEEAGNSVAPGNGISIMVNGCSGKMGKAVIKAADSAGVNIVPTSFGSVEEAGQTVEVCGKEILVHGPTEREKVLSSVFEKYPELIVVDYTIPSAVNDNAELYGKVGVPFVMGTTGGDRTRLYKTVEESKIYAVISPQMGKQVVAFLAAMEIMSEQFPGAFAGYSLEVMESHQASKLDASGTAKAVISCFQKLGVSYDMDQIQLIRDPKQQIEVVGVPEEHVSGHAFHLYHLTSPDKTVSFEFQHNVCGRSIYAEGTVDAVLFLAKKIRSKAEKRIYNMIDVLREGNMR
# assay protocol: DHDPR enzyme inhibition assay, recombinant AtDHDPR2
# Type: biochemical
# recorded conditions: IC50 against AtDHDPR2, substrate and cofactor at limiting concentrations
pIC50: −log10 of the molar value.

- compound: "COc1ccc(/C=C2\\SC(=O)N(CC(=O)O)C2=O)cc1 [MBDTA-2]"
  pIC50: 5.07
